Overview of reported TGI across a group of molecules:
System: MDA-N
Test: NCI tumour cell line growth inhibition, 48 h

molecule | TGI
CCOC(=S)SC/C(=N\OC(C)(C)OC)c1ccccc1 | > 100 µM
C[N+](C)(N)Cc1csc(-c2ccc(Cl)cc2)n1 | > 100 µM
COc1cc(C2c3cc4c(cc3OC(N3CCOCC3)C2C)OCO4)cc(OC)c1OC (stereo not drawn) | 0.439 µM
Cc1ccc(N2C(=O)C(O)=C(C(=O)C(C)(C)C)C2c2ccc([N+](=O)[O-])cc2)cc1 (stereo not drawn) | 69.2 µM
CNC(=O)C(NC(=O)[C@H](CC(C)C)NC(=O)[C@@H](S)CCN1C(=O)N(C)C(C)(C)C1=O)C(C)(C)C (stereo partly drawn) | > 100 µM
O=C1c2c(O)cccc2C(C(=O)CCCC(=O)C2c3cccc(O)c3C(=O)c3c(O)cccc32)c2cccc(O)c21 | 3.39 µM
CCC(C)N1CN(c2ccccc2)C2(CCN(CCCC(=O)c3ccc(F)cc3)CC2)C1=O (stereo not drawn) | 25.5 µM
C[n+]1c(-c2ccc(/C=N/Nc3n[nH]c(=S)n3N/N=C/c3ccc(-c4cn5ccccc5[n+]4C)cc3)cc2)cn2ccccc21 | > 100 µM

* * *

System: UO-31 renal
Assay: NCI tumour cell line growth inhibition, 48 h
Where a SMILES comes first, the peptide text is derived from it. Side-chain parts run from the residue outwards. The star is where a group is joined. Cbz = O=C(OCc1ccccc1)*; Boc = CC(C)(C)OC(=O)*
// reported TGI for each item listed
measurement-type: TGI

molecule | target | measurement-type | readout-value
CCN1CCN(c2cc(C)nc(NCc3cc(Nc4ccnc5cc(Cl)ccc45)ccc3F)n2)CC1 | UO-31 renal | TGI | 3.89 µM
CCOC(CN(C)C(=O)OCC(Cl)(Cl)Cl)OCC | UO-31 renal | TGI | > 100 µM
Cc1cccc(NC(=O)Cc2nc3ccccc3s2)c1C | UO-31 renal | TGI | > 100 µM
CC(C)CC(NC(=O)OCc1ccccc1)C(=O)NCCCCC(NC(=O)C(CCCCNC(=O)C(CC(C)C)NC(=O)OCc1ccccc1)NC(=O)C(CCCCNC(=O)C(CC(C)C)NC(=O)OCc1ccccc1)NC(=O)C(CCCCNC(=O)C(CC(C)C)NC(=O)OCc1ccccc1)NC(=O)OC(C)(C)C)C(=O)O (stereo not drawn) (Boc-K([Leu-Cbz])K([Leu-Cbz])K([Leu-Cbz])K([Leu-Cbz])-OH; configuration not given here) | UO-31 renal | TGI | > 25 µM
CC(=O)Oc1cc(OC(C)=O)c2cc3c(cc2c1OC(C)=O)C(=O)C1(CCCC1)C3=O | UO-31 renal | TGI | 29.8 µM
c1ccc([P+](CCC[P+](c2ccccc2)(c2ccccc2)c2ccccc2)(c2ccccc2)c2ccccc2)cc1 | UO-31 renal | TGI | > 100 µM
O=C1C(Nc2cccc(O)c2)=C(Sc2ccc(Cl)cc2)C(=O)N1Cc1ccccc1 | UO-31 renal | TGI | > 100 µM
CC(=O)O[C@H]1CC[C@H]2[C@@H]3CC[C@H]4Nc5c(cnn5S(C)(=O)=O)C[C@]4(C)[C@H]3CC[C@]12C | UO-31 renal | TGI | > 100 µM

* * *

System: OVCAR-3 ovarian
Assay: NCI tumour cell line growth inhibition, 48 h
This listing pairs molecules with measured GI50.
measurement-type: GI50

smiles-notation | measurement-type | readout-value
O=c1cc(-c2ccc[nH]2)[nH]c2cc3c(cc12)OCO3 | GI50 | 30.8 µM
CCCCc1oc2ccccc2c1C(=O)c1cc(I)c(OCCN(CC)CC)c(I)c1 | GI50 | 3.69 µM
Cc1[nH]ccc2cc3nc4ccccc4c3cc12 | GI50 | 3.04 µM

* * *

# maps each entry to its TGI
Test system: XF 498 CNS
Assay: NCI tumour cell line growth inhibition, 48 h

compound | TGI
CCCCc1oc2ccccc2c1C(=O)c1cc(I)c(OCCN(CC)CC)c(I)c1 | 8.25 µM
CC(=O)OC1C/C(C)=C/[C@H](O)CC(C)/C=C/[C@@]2(C)CCC(C(C)(C)O)C12 (some centres undefined) | > 100 µM
CN(Cc1ccccc1)c1nc(=[N+](C)C)ss1 | > 100 µM
Oc1cccc2nc3cc(CN4CCOCC4)c(CN4CCOCC4)cc3nc12 | > 100 µM

* * *

Test system: DU-145 prostate
Experiment: NCI tumour cell line growth inhibition, 48 h
The reader will find reported TGI values listed item by item below.
measurement-type: TGI

molecule | target | measurement-type | readout-value
c1cc(C2N3CCCN2CC3)ccn1 (stereo not given) | DU-145 prostate | TGI | > 100 µM
CCC(=O)n1c(=O)n(-c2ccc([N+](=O)[O-])cc2)c(=O)n1C(=O)CC | DU-145 prostate | TGI | > 100 µM
O=c1[nH]c2cc([N+](=O)[O-])c(N(CCO)CCO)c([N+](=O)[O-])c2[nH]1 | DU-145 prostate | TGI | > 100 µM
COC(=O)C1(Cc2ccc3c(c2)CCC3)Cc2cc3c(cc2C1=O)CCC3 (stereo not given) | DU-145 prostate | TGI | > 46.4 µM
CCN(CC)CCNC(=O)c1cc2cc(NC(=O)c3cc4cc(NC(=O)c5cc6cc([N+](=O)[O-])ccc6[nH]5)ccc4[nH]3)ccc2[nH]1 | DU-145 prostate | TGI | > 100 µM

* * *

System: HCT-15 colon
Experiment: NCI tumour cell line growth inhibition, 48 h; in the data active means GI50 below about 0.43 µM; inactive means the rest
Possible outcomes: 1 = active, 0 = inactive

compound | cat
Cc1[nH]ccc2cc3nc4ccccc4c3cc12 | 0
CCCCc1oc2ccccc2c1C(=O)c1cc(I)c(OCCN(CC)CC)c(I)c1 | 0
CC(C)(C)n1cc(-c2ccnc(NCCCNS(=O)(=O)c3ccc(Cl)cc3)c2)c(-c2cccc(O)c2)n1 | 0
C[C@@H]1CCC2[C@@H](C)[C@H](OC(=O)CCC(=O)NCCNC(=O)Cc3cc(=O)oc4cc(N(C)C)ccc34)O[C@@H]3O[C@]4(C)CC[C@@H]1C23OO4 (stereo partly specified) | 1
O=C(Nc1ccc([N+](=O)[O-])cc1)c1cc2ccccc2cc1O | 1
Cc1cc(S(=O)(=O)Nc2nc3ccsc3c(=O)n2Cc2ccccc2)c(S)cc1Cl | 0

* * *

Test system: LXFL 529 NSCLC
Test: NCI tumour cell line growth inhibition, 48 h
measurement-type: TGI

compound | measurement-type | readout-value
Cc1ccc(C(=O)NC(C)C)cc1N=NN(C)C | TGI | > 100 µM
COc1cc(C(=C2SCCS2)c2nccc3cc(OC)c(OC)cc23)c([N+](=O)[O-])cc1OC | TGI | > 100 µM
Cn1c(=O)c2[nH]cnc2n(CC(=O)O)c1=O | TGI | > 100 µM
COc1ccc(CC(C#N)c2cc(OC)c(OC)c(OC)c2)cc1 (stereo not drawn) | TGI | > 100 µM
O=C(NN1C(=O)C(Cl)C1c1ccc([N+](=O)[O-])cc1)c1ccccc1O (stereo not drawn) | TGI | > 100 µM
N#CNc1nc(C(=O)Nc2ccc(Cl)cc2)cc(-c2ccccc2)n1 | TGI | > 100 µM
CCc1c(-c2coc(CC/C(C)=C/c3ccccc3)n2)oc(OC)c(C)c1=O | TGI | > 55.5 µM
COC(=O)C1CCC(N2C(=O)CCC2C(=O)OC)=N1 (stereo not drawn) | TGI | > 100 µM
CCCCCC/C=C/CCCCCCCc1cccc(O)c1C(=O)O | TGI | > 100 µM
CCOC(=O)C1CCn2c(nc3c(=O)n(C)c(=O)n(C)c32)S1 (stereo not drawn) | TGI | > 100 µM
Nc1nc(SCc2ccccc2[N+](=O)[O-])c2[nH]cnc2n1 | TGI | > 100 µM
O/N=C1/C(=C/c2ccc(Cl)cc2)CCCC1C(NO)c1ccc(Cl)cc1 (stereo not drawn) | TGI | > 100 µM
CN(/C(=N\O)c1ccccc1)c1ccccc1 | TGI | > 100 µM
CN(C)C(=S)/N=c1\ssc(=S)n1Cc1ccccn1 | TGI | > 100 µM
O=C(Nc1ccccc1)OCc1nc2c([nH]1)C(=O)C=CC2=O | TGI | 11.1 µM
O=C(Cc1nc2ccccc2s1)C(=O)Nc1ccc(Cl)cc1Cl | TGI | > 100 µM
CC(=O)NNc1nc(C)c(C(/C=C/c2ccc(Cl)cc2)=N/NC(=S)NN)s1 | TGI | > 100 µM
C[C@@]1(CBr)C[C@@](C)(/C=C/Cl)[C@@H](Cl)C[C@H]1Cl | TGI | 21.7 µM

* * *

Tested on: HT29 colon
Experiment: NCI tumour cell line growth inhibition, 48 h
measurement-type: TGI

compound | target | measurement-type | readout-value
CCOC(=O)C1CCn2c(nc3c(=O)n(C)c(=O)n(C)c32)S1 (stereo not given) | HT29 colon | TGI | > 100 µM
CCC(C)c1cnc(CC(C)C)c(=O)[nH]1 (stereo not given) | HT29 colon | TGI | > 100 µM
[N-]=[N+]=NC(c1cn(C2CC(O)C(CO)O2)c(=O)[nH]c1=O)C(I)I (stereo not given) | HT29 colon | TGI | > 100 µM
COC(=O)C1(Cc2ccc3c(c2)CCC3)Cc2cc3c(cc2C1=O)CCC3 (stereo not given) | HT29 colon | TGI | > 46.4 µM
C[n+]1c(-c2ccc(/C=N/Nc3n[nH]c(=S)n3N/N=C/c3ccc(-c4cn5ccccc5[n+]4C)cc3)cc2)cn2ccccc21 | HT29 colon | TGI | > 100 µM

Source listed as PubChem BioAssay (NCI).
